# assayed_target: human CYP11B2 (Homo sapiens)
# Sequence (P19099 25-503): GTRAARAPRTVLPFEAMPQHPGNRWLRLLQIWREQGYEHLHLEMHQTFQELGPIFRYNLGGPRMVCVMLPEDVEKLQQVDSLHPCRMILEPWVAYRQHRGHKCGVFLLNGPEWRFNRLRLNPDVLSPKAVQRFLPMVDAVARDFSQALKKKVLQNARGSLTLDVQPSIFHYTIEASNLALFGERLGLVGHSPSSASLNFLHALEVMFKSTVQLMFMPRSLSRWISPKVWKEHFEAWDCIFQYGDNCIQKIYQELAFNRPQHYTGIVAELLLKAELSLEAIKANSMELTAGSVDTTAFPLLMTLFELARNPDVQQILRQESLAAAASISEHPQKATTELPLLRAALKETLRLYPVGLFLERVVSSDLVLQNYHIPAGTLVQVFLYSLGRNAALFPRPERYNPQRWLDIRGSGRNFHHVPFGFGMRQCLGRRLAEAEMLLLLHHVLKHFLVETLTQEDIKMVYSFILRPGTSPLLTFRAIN
# experiment: IC50 vs CYP11B2 by measurement of aldosterone synthesis in V79 cells
# measurement_parameters: V79 cells expressing human CYP11B2, 750 nM DOC, aldosterone HTRF
pIC50: −log10 of the molar value.
measurement_kind: pIC50

Some solved entries appear below for comparison.
C[C@@H](c1ccccc1-c1ccc(Cl)nc1)n1cncc1C(=O)N1CCC2NCCO[C@@H]2C1 (some centres unmarked) = < 4.30
C[C@@H](c1ccccc1-c1ccc(F)cc1)n1cncc1C(=O)N1CCC2NC(=O)COC2(C)C1 (some centres unmarked) = < 4.30
C[C@@H](c1ccccc1-c1ccc(F)cc1)n1cncc1C(=O)N1CCC(N2C[C@H](O)[C@@H](F)C2)CC1 = 4.61

# batch size: 4; output pIC50 per entry
1. C[C@@H](c1ccccc1-c1cc(F)cc(F)c1)n1cncc1C(=O)N1CCC2NCCO[C@@H]2C1 (some centres unmarked)
2. C[C@@H](c1ccccc1-c1ccc(F)cc1)n1cncc1C(=O)N1CCCC(N2CCC(C)(O)CC2)CC1 (single isomer, unassigned) [Compound 3b]
3. CO[C@H]1CN(C2CCN(C(=O)c3cncn3[C@@H](C)c3ccccc3-c3ccc(F)cc3)CC2)C[C@@H]1O
4. C[C@@H](c1ccccc1-c1ccc(F)cc1)n1cncc1C(=O)N1CC[C@H]2NCCO[C@@H]2C1

Result:
1: < 4.30; 2: 4.37; 3: < 4.30; 4: < 4.30

# batch size: 7; output pIC50 per entry
1. C[C@@H](c1ccccc1-c1ccc(F)cc1)n1cncc1C(=O)N1CCC2NC(=O)CO[C@@H]2C1 (mixture of isomers)
2. COCc1ccccc1-c1ccccc1[C@H](C)n1cncc1C(=O)N1CCC2NCCO[C@@H]2C1 (some centres unmarked)
3. C[C@@H](c1ccccc1-c1ccc(F)cc1)n1cncc1C(=O)N1CCC(N2CCC(O)CC2)CC1
4. CCOc1ncccc1-c1ccccc1[C@H](C)n1cncc1C(=O)N1CCC2NCCO[C@@H]2C1 (some centres unmarked)
5. C[C@@H](c1ccccc1-c1ccc(F)cc1)n1cncc1C(=O)N1CCC(N2CCNC(=O)C2)CC1
6. C[C@@H](c1ccccc1-c1ccc(F)cc1)n1cncc1C(=O)N1CCn2c(nnc2C2CC2)C1
7. C[C@@H](c1ccccc1-c1cccc(F)c1)n1cncc1C(=O)N1CCC2NCCO[C@@H]2C1 (some centres unmarked)

Result:
1: < 4.30; 2: 4.59; 3: < 4.30; 4: 4.59; 5: 4.51; 6: < 4.30; 7: < 4.30

# batch size: 3; output pIC50 per entry
1. C[C@H]1CN(C(=O)c2cncn2[C@@H](C)c2ccccc2-c2ccc(F)cc2)CC[C@H]1N1CC[C@@H](O)C1
2. C[C@@H](c1ccccc1-c1ccc(F)cc1)n1cncc1C(=O)N1CCC(NC2COC[C@H]2O)CC1 (some centres unmarked)
3. C[C@@H](c1ccccc1-c1ccc(F)cc1)n1cncc1C(=O)N1CCC(N2CC[C@@H](O)[C@H](F)C2)CC1

Result:
["< 4.30", "< 4.30", "< 4.30"]

# batch size: 3; output pIC50 per entry
1. C[C@@H](c1ccccc1-c1ccc(F)cc1)n1cncc1C(=O)N1CCC(N2C[C@@H](O)[C@H](F)C2)CC1
2. C[C@@H](c1ccccc1-c1ccc(F)cc1F)n1cncc1C(=O)N1CCC2NCCO[C@@H]2C1 (some centres unmarked)
3. C[C@@H](c1ccccc1-c1ccc(F)cc1)n1cncc1C(=O)N1CCC(N2CCC(F)C(O)C2)CC1 (some centres unmarked)

Result:
["< 4.30", "< 4.30", "< 4.30"]

* * *

Provide the recorded IC50 for the entries that follow.
# assayed_target: CYP1A2 (Homo sapiens, UniProt P05177)
# Sequence (P05177 1-516): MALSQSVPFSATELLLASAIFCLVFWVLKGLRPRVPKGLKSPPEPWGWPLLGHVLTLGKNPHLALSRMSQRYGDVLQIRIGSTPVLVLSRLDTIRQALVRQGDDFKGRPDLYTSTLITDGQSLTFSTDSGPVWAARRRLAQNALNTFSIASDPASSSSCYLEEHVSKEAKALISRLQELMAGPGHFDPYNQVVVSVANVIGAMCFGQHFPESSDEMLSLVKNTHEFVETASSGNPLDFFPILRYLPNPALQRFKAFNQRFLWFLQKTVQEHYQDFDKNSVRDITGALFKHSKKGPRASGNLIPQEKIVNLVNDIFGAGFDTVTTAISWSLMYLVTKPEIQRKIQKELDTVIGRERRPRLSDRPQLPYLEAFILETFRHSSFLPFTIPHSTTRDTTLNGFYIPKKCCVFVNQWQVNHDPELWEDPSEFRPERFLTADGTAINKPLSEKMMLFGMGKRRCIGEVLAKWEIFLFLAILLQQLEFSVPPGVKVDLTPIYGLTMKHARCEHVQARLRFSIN

Some solved entries appear below for comparison.
CO[C@H]1CN(C2CCN(C(=O)c3cncn3[C@@H](C)c3ccccc3-c3ccc(F)cc3)CC2)CC[C@H]1O = > 10 µM
C[C@@H](c1ccccc1C1CCCC1)n1cncc1C(=O)N1CCC2NCCO[C@@H]2C1 (stereo partly drawn) = > 10 µM
C[C@@H](c1ccccc1-c1ccc(F)cc1)n1cncc1C(=O)N1CCC[C@H]2OCCN[C@@H]2C1 = > 10 µM

# batch size: 7; output IC50 per entry
1. C[C@@H](c1ccccc1-c1ccc(F)cc1)n1cncc1C(=O)N1CCC(N2CCNC(=O)C2)CC1
2. C[C@@H](c1ccccc1CN1CCC(F)CC1)n1cncc1C(=O)N1CCC2NCCO[C@@H]2C1 (stereo partly drawn)
3. C[C@@H](c1ccccc1-c1ccc(F)cc1)n1cncc1C(=O)N1CCC(N2CCCC(C)(O)C2)CC1 (stereo partly drawn)
4. C[C@@H](c1ccccc1-c1ccc(F)cc1)n1cncc1C(=O)N1CCC[C@@H]2OCCN[C@H]2C1
5. C[C@@H](c1ccccc1-c1ccc(F)cc1)n1cncc1C(=O)N1CC[C@@H](N2CCOCC2)[C@@H](F)C1
6. CO[C@H]1CN(C2CCN(C(=O)c3cncn3[C@@H](C)c3ccccc3-c3ccc(F)cc3)CC2)CC[C@@H]1O
7. C[C@@H](c1ccccc1-c1ccc(F)cc1)n1cncc1C(=O)N1CCC(NC2COC[C@H]2O)CC1 (stereo partly drawn)

Result:
1: > 10 µM; 2: > 10 µM; 3: > 10 µM; 4: > 10 µM; 5: > 10 µM; 6: > 10 µM; 7: > 10 µM

# batch size: 5; output IC50 per entry
1. C[C@@H](c1ccccc1-c1ccc(F)c(F)c1F)n1cncc1C(=O)N1CCC2NCCO[C@@H]2C1 (stereo partly drawn)
2. C[C@@H](c1ccccc1-c1ccc(F)cc1)n1cncc1C(=O)N1CCC2NC(=O)CO[C@@H]2C1 (mixture of isomers)
3. C[C@@H](c1ccccc1-c1ccccc1)n1cncc1C(=O)N1CCC2NCCO[C@@H]2C1 (stereo partly drawn)
4. C[C@H]1CN(C(=O)c2cncn2[C@@H](C)c2ccccc2-c2ccc(F)cc2)CC[C@H]1N1CC[C@@H](O)C1
5. C[C@@H](c1ccccc1-c1ccc(F)cc1)n1cncc1C(=O)N1CC[C@@H](N2CCC(O)CC2)[C@@H](F)C1

Result:
1. > 10 µM
2. > 10 µM
3. > 10 µM
4. > 10 µM
5. > 10 µM

* * *

Assay system CYP3A4 (Homo sapiens); read-out recorded as pIC50.
Give bare numbers, as −log10 of the molar value.

Some solved entries appear below for comparison.
C[C@@H](c1ccccc1-c1ccccc1OC(F)(F)F)n1cncc1C(=O)N1CCC2NCCO[C@@H]2C1 (some centres unmarked) [Compound 42] = 8.33
C[C@@H]1CN(C2CCN(C(=O)c3cncn3[C@@H](C)c3ccccc3-c3ccc(F)cc3)CC2)CC[C@H]1O [Compound 18] = 8.01
C[C@@H](c1ccccc1-c1ccc(F)cc1)n1cncc1C(=O)N1CCC(N2CCNC(=O)C2)CC1 [Compound 20] = 8.35
C[C@@H](c1ccccc1C(C)(C)F)n1cncc1C(=O)N1CCC2NCCO[C@@H]2C1 (some centres unmarked) [Compound 46] = 7.96
C[C@@H](c1ccccc1-c1ccc(F)cc1)n1cncc1C(=O)N1CCCC(N2CCC(C)(O)CC2)CC1 (single isomer, unassigned) [Compound 3b] = 8.18

# batch size: 6; output pIC50 per entry
1. C[C@@H](c1ccccc1-c1ccc(F)cc1)n1cncc1C(=O)N1CCC(NC2CCC(O)CC2)CC1 (some centres unmarked) [Compound 25]
2. CC(C)c1ccccc1[C@H](C)n1cncc1C(=O)N1CCC2NCCO[C@@H]2C1 (some centres unmarked) [Compound 47]
3. C[C@@H](c1ccccc1-c1ccc(F)cc1)n1cncc1C(=O)N1CCN2C[C@H](O)C[C@H]2C1 [Compound 6]
4. C[C@@H](c1ccccc1-c1ccc(F)cc1F)n1cncc1C(=O)N1CCC2NCCO[C@@H]2C1 (some centres unmarked) [Compound 38]
5. C[C@@H](c1ccccc1-c1ccc(F)cc1)n1cncc1C(=O)N1CCC(N2CCC[C@H](O)C2)CC1 [Compound 8]
6. C[C@@H](c1ccccc1-c1ccc(F)cc1)n1cncc1C(=O)N1CC[C@@H](N2CCOCC2)[C@@H](F)C1 [Compound 29]

Result:
1: 8.04; 2: 8.07; 3: 8.05; 4: 8.05; 5: 8.25; 6: 8.20
